Reference source: patent US7253187B2

pKi: −log10 of the molar value.
Observed pKi for GSK-3β (AA 1–420) (Homo sapiens, UniProt P49841), reported per entry below.

[
  {
    "Molecule": "Cc1cnc(N[C@H](CO)c2ccccc2)nc1-c1c[nH]c(C(=O)N[C@H](CO)c2ccccc2)c1 [III-a-155]",
    "pKi": "6.00 to 7.00"
  },
  {
    "Molecule": "CCNc1ncc(C)c(-c2c[nH]c(C(=O)N[C@H](CO)c3ccccc3)c2)n1 [III-a-117]",
    "pKi": "> 7.00"
  },
  {
    "Molecule": "Cc1cnc(NC2CC2)nc1-c1c[nH]c(C(=O)NC(CO)c2cccc(C(F)(F)F)c2)c1 (centres unmarked) [III-a-202]",
    "pKi": "< 6.00"
  },
  {
    "Molecule": "Cc1ccc(C(CO)NC(=O)c2cc(-c3nc(Nc4ccccc4)ncc3C)c[nH]2)cc1F (centres unmarked) [III-a-145]",
    "pKi": "> 7.00"
  },
  {
    "Molecule": "COc1cccc(Nc2ncc(C)c(-c3c[nH]c(C(=O)NC(CO)c4ccccc4)c3)n2)c1 (centres unmarked) [III-a-137]",
    "pKi": "> 7.00"
  },
  {
    "Molecule": "CCNc1ncc(C)c(-c2c[nH]c(C(=O)NC(CO)c3cccc(F)c3)c2)n1 (centres unmarked) [III-a-191]",
    "pKi": "6.00 to 7.00"
  },
  {
    "Molecule": "Cc1cccc(C(CO)NC(=O)c2cc(-c3nc(Nc4cccc(C)c4C)ncc3C)c[nH]2)c1 (centres unmarked) [III-a-211]",
    "pKi": "6.00 to 7.00"
  },
  {
    "Molecule": "COc1ccccc1C(CO)NC(=O)c1cc(-c2nc(NC3CC3)ncc2C)c[nH]1 (centres unmarked) [III-a-203]",
    "pKi": "6.00 to 7.00"
  }
]

---

- Target or test system: ERK2 (Homo sapiens, UniProt P28482)
- Sequence (P28482 whole entry): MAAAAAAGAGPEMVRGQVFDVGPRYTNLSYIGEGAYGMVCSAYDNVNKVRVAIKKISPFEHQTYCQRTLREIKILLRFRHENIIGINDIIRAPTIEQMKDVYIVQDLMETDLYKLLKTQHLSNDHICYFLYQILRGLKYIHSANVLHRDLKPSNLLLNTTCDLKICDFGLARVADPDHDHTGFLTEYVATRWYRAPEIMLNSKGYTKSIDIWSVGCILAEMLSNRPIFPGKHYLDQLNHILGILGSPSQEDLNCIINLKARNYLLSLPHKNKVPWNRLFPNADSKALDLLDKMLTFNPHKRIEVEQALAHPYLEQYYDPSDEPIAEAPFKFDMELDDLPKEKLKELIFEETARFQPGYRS
- Procedure details: ERK2 inhibition assay (spectrophotometric coupled-enzyme assay)
- Type: biochemical
- Experimental setup: read-out: ERK2 Inhibitory Activity (Ki class D-F)
pKi: −log10 of the molar value.

[
  {
    "Compound": "O=C(NCc1ccc2c(c1)OCO2)c1cc(-c2nc(Nc3ccccc3)ncc2-c2cc(Cl)cc(Cl)c2)c[nH]1",
    "pKi": "< 6.00"
  },
  {
    "Compound": "Cc1cnc(NCC2CCCO2)nc1-c1c[nH]c(C(=O)NC(CO)c2ccccc2)c1 (centres unmarked) [III-a-216]",
    "pKi": "> 7.00"
  },
  {
    "Compound": "Cc1cnc(N[C@H](CO)c2ccccc2)nc1-c1c[nH]c(C(=O)N[C@H](CO)c2ccccc2)c1",
    "pKi": "> 7.00"
  },
  {
    "Compound": "COCc1cnc(N)nc1-c1c[nH]c(C(=O)N[C@H](CO)c2ccccc2)c1",
    "pKi": "6.00 to 7.00"
  },
  {
    "Compound": "CCCNc1ncc(C)c(-c2c[nH]c(C(=O)NC(CO)c3ccccc3)c2)n1 (centres unmarked)",
    "pKi": "> 7.00"
  },
  {
    "Compound": "Cc1cccc(C(CO)NC(=O)c2cc(-c3nc(Nc4cccc(N(C)C)c4)ncc3C)c[nH]2)c1 (centres unmarked)",
    "pKi": "> 7.00"
  },
  {
    "Compound": "Cc1cnc(Nc2cccc(F)c2)nc1-c1c[nH]c(C(=O)NC(CO)c2cccc(C(F)(F)F)c2)c1 (centres unmarked) [III-a-148]",
    "pKi": "> 7.00"
  },
  {
    "Compound": "CCNc1ncc(C)c(-c2c[nH]c(C(=O)NC(CO)C(O)c3ccccc3)c2)n1 (centres unmarked) [III-a-171]",
    "pKi": "< 6.00"
  },
  {
    "Compound": "Cc1cnc(Nc2cccc(OCc3ccccc3)c2)nc1-c1c[nH]c(C(=O)NC(CO)c2ccccc2)c1 (centres unmarked)",
    "pKi": "> 7.00"
  },
  {
    "Compound": "Cc1cccc(C(CO)NC(=O)c2cc(-c3nc(Nc4ccccc4Cl)ncc3C)c[nH]2)c1 (centres unmarked)",
    "pKi": "> 7.00"
  },
  {
    "Compound": "Cc1cnc(NOC(C)C)nc1-c1c[nH]c(C(=O)NC(CO)c2ccccc2)c1 (centres unmarked)",
    "pKi": "> 7.00"
  },
  {
    "Compound": "Cc1cnc(NC#N)nc1-c1c[nH]c(C(=O)NC(CO)c2ccccc2)c1 (centres unmarked)",
    "pKi": "> 7.00"
  },
  {
    "Compound": "Cc1cnc(NC(CO)CC2CC2)nc1-c1c[nH]c(C(=O)NC(CO)c2ccccc2)c1 (centres unmarked)",
    "pKi": "> 7.00"
  },
  {
    "Compound": "Cc1cnc(NC(CO)CO)nc1-c1c[nH]c(C(=O)NC(CO)c2ccccc2)c1 (centres unmarked)",
    "pKi": "> 7.00"
  },
  {
    "Compound": "Cc1cnc(NC(CO)CO)nc1-c1c[nH]c(C(=O)NC(CO)c2cccc(Cl)c2)c1 (centres unmarked)",
    "pKi": "> 7.00"
  },
  {
    "Compound": "Cc1cnc(NCC2CCCO2)nc1-c1c[nH]c(C(=O)NC(CO)c2ccccc2)c1 (centres unmarked) [III-a-217]",
    "pKi": "> 7.00"
  },
  {
    "Compound": "Cc1cnc(NC2CC2)nc1-c1c[nH]c(C(=O)N[C@H](CO)c2ccccc2)c1",
    "pKi": "> 7.00"
  }
]

---

Known Ki of a selection of molecules
- Target or test system: UniProtKB P28482
- Procedure details: ERK2 inhibition assay (spectrophotometric coupled-enzyme assay)
- Assay type: biochemical
- Experimental setup: read-out: ERK2 Inhibitory Activity (Ki class D-F)

[
  {
    "Molecule": "Cc1cnc(NC2CC2)nc1-c1c[nH]c(C(=O)NC(CO)c2cccc(C(F)(F)F)c2)c1 (stereo not shown) [III-a-202]",
    "Ki": "< 100 nM"
  },
  {
    "Molecule": "CCNc1ncc(C)c(-c2c[nH]c(C(=O)NC(CO)C(O)c3ccccc3)c2)n1 (stereo not shown) [III-a-170]",
    "Ki": "> 1000 nM"
  },
  {
    "Molecule": "CCCNC(=O)c1cc(-c2nc(Nc3ccccc3)ncc2C)c[nH]1 [III-a-111]",
    "Ki": "< 100 nM"
  },
  {
    "Molecule": "Cc1ccc(C(CO)NC(=O)c2cc(-c3nc(Nc4cccc(F)c4)ncc3C)c[nH]2)cc1F (stereo not shown) [III-a-147]",
    "Ki": "< 100 nM"
  },
  {
    "Molecule": "CCNc1ncc(C)c(-c2c[nH]c(C(=O)NC(C(=O)OC)c3ccccc3)c2)n1 (stereo not shown) [III-a-184]",
    "Ki": "100 to 1000 nM"
  },
  {
    "Molecule": "Cc1cnc(Nc2ccc(S(N)(=O)=O)cc2)nc1-c1c[nH]c(C(=O)NC(CO)c2ccccc2)c1 (stereo not shown) [III-a-140]",
    "Ki": "< 100 nM"
  },
  {
    "Molecule": "Cc1cnc(Nc2ccccc2Cl)nc1-c1c[nH]c(C(=O)NC(CO)c2cccc(C(F)(F)F)c2)c1 (stereo not shown) [III-a-200]",
    "Ki": "< 100 nM"
  },
  {
    "Molecule": "Cc1cnc(Nc2ccc3c(c2)OCO3)nc1-c1c[nH]c(C(=O)NC(CO)c2ccccc2)c1 (stereo not shown) [III-a-139]",
    "Ki": "< 100 nM"
  },
  {
    "Molecule": "Nc1ncc(-c2cc(F)cc(C(F)(F)F)c2)c(-c2c[nH]c(C(=O)NC(CO)c3ccccc3)c2)n1 (stereo not shown) [III-a-105]",
    "Ki": "100 to 1000 nM"
  },
  {
    "Molecule": "CCC(CO)Nc1ncc(C)c(-c2c[nH]c(C(=O)NC(CO)c3cccc(Cl)c3)c2)n1 (stereo not shown) [III-a-232]",
    "Ki": "< 100 nM"
  },
  {
    "Molecule": "Cc1cnc(NC2CC2)nc1-c1c[nH]c(C(=O)NC(CO)c2cccc(Cl)c2)c1 (stereo not shown) [III-a-204]",
    "Ki": "< 100 nM"
  },
  {
    "Molecule": "CCOC(=O)NNc1ncc(C)c(-c2c[nH]c(C(=O)N[C@H](CO)c3ccccc3)c2)n1 [III-a-218]",
    "Ki": "100 to 1000 nM"
  },
  {
    "Molecule": "Cc1cnc(NC2CCC(O)CC2)nc1-c1c[nH]c(C(=O)NC(CO)c2ccccc2)c1 (stereo not shown) [III-a-142]",
    "Ki": "< 100 nM"
  }
]
